biological target: Neuronal acetylcholine receptor; alpha4/beta2 (Rattus norvegicus) (UniProt P09483+P12390); test: Agonist activity at rat alpha4beta2 nAChR expressed in Xenopus laevis oocytes at 100 uM after 2 to 6 days by two electrode voltage clamp assay relative to acetylcholine; type: functional, cell-based; settings: Oocyte
# %max values compiled below
endpoint.label: %max (%)

{"compound": "O=[N+]([O-])c1ccc(-c2cc(C3CC4CCC3N4)cnc2F)cc1 (racemic)", "measured": 0}
{"compound": "Fc1ncc(C2CC3CCC2N3)cc1-c1ccc(C(F)(F)F)cc1 (racemic)", "measured": 0}
{"compound": "Clc1ccc([C@H]2CC3CCC2N3)cn1 (mixture of isomers)", "measured": 131}
{"compound": "NS(=O)(=O)c1ccc(-c2cc(C3CC4CCC3N4)cnc2F)cc1 (racemic)", "measured": 0}
{"compound": "N#Cc1ccc(-c2cc(C3CC4CCC3N4)cnc2F)cc1 (racemic)", "measured": 0}
{"compound": "NC(=O)c1ccc(-c2cc(C3CC4CCC3N4)cnc2F)cc1 (racemic)", "measured": 3.5}
{"compound": "O=S(=O)(c1ccc(-c2cc(C3CC4CCC3N4)cnc2F)cc1)C(F)(F)F (racemic)", "measured": 0}
{"compound": "CS(=O)(=O)c1ccc(-c2cc(C3CC4CCC3N4)cnc2F)cc1 (racemic)", "measured": 0}
{"compound": "c1cnc2cc3c(cc2n1)[C@@H]1CNC[C@H]3C1", "measured": 13}

* * *

system: Mus musculus; assay: Effect on hypothermia in mouse assessed as variation in rectal temperature at 10 mg/kg, sc measured after 30 mins by thermister probe based method; assay type: functional; details: route subcutaneous
# Activity values compiled below

{"compound": "N#Cc1ccc(-c2cc(C3CC4CCC3N4)cnc2F)cc1 (racemic)", "Activity [%]": 0}
{"compound": "CS(=O)(=O)c1ccc(-c2cc(C3CC4CCC3N4)cnc2F)cc1 (racemic)", "Activity [%]": 1}
{"compound": "Fc1ncc(C2CC3CCC2N3)cc1-c1ccc(C(F)(F)F)cc1 (racemic)", "Activity [%]": 0}
{"compound": "O=S(=O)(c1ccc(-c2cc(C3CC4CCC3N4)cnc2F)cc1)C(F)(F)F (racemic)", "Activity [%]": 0}
{"compound": "NS(=O)(=O)c1ccc(-c2cc(C3CC4CCC3N4)cnc2F)cc1 (racemic)", "Activity [%]": 0}

Values compiled from ChEMBL document CHEMBL2163204.
